The reported numbers originate from patent US20230048132A1.

// reported pIC50 for each item listed
Test system: UXF MFE-319
Assay: 2D cell proliferation assay (CellTiter-Blue)
Format: cell-based
Conditions: 72 h, three days of treatment, read-out: abs. IC50
Procedure: Viability of the cells was analyzed by using the CellTiter-Blue® Cell Viability Assay (Promega), and was performed according to manufacturer's instructions. Briefly, cells were harvested from exponential phase cultures (Chapter 6.6), counted and plated in 96-well flat-bottom microtiter plates at a cell density of 4,000-60,000 cells/well in a volume of 140 μl per well. […]
Hey, just a heads up that pIC50 is the negative log base 10 of the concentration in molar.

compound="CN(C)CCOc1ccc(Nc2ncc3c(n2)N(C2CCCC2)C(=O)[C@]2(CCNC2=O)C3)cc1 [Example D179]" study_system="UXF MFE-319" recorded_value=6.84
compound="O=C1NCC[C@@]12Cc1cnc(Nc3ccc(N4CCNCC4)cc3F)nc1N(C1CCCC1)C2=O [Example D146]" study_system="UXF MFE-319" recorded_value=5.95
compound="CC(C)N1CCN(c2ccc(Nc3ncc4c(n3)N(C3CCCC3)C(=O)[C@]3(CCNC3=O)C4)nc2)CC1 [Example D154]" study_system="UXF MFE-319" recorded_value=5.27

Kindly review the next compound as well.
Fill in reported pIC50 for this entry: CN(C)[C@H]1CCN(c2ccc(Nc3ncc4c(n3)N(C3CCCC3)C(=O)[C@]3(CCNC3=O)C4)nc2)C1 [Example D178] 4.95

----------
tested on: LXFA A549; assay: 2D cell proliferation assay (CellTiter-Blue); type: cell-based; conditions: Homo sapiens, 72 h, three days of treatment, read-out: abs. IC50
pIC50: −log10 of the molar value.
Would you mind labelling by pIC50? At or over 6 is t, under is f.

Examples from the recorded data:
compound_structure=CN(C)[C@@H]1CCN(c2ccc(Nc3ncc4c(n3)N(C3CCCC3)C(=O)[C@]3(CCNC3=O)C4)cc2F)C1 study_system="LXFA A549" assigned_category=t
compound_structure=O=C1NCC[C@@]12Cc1cnc(Nc3ccc(N4CCNCC4)c(F)c3)nc1N(C1CCCC1)C2=O study_system="LXFA A549" assigned_category=t
compound_structure=Cc1cc(Nc2ncc3c(n2)N(C2CCCC2)C(=O)[C@]2(CCNC2=O)C3)ccc1N1CCN(C(C)C)CC1 study_system="LXFA A549" assigned_category=t
compound_structure=O=C1NCC[C@@]12Cc1cnc(Nc3ccc(N4CCNCC4)cc3F)nc1N(C1CCCC1)C2=O study_system="LXFA A549" assigned_category=f
compound_structure=CN1CCN(c2ccc(Nc3ncc4c(n3)N(C3CCCC3)C(=O)[C@]3(CCNC3=O)C4)cc2F)CC1 study_system="LXFA A549" assigned_category=t

Is it the case that `CN(C)[C@H]1CCN(c2ccc(Nc3ncc4c(n3)N(C3CCCC3)C(=O)[C@]3(CCNC3=O)C4)nc2)C1` has pIC50 reaching or exceeding 6? f

Is it the case that `CN(C)CCOc1ccc(Nc2ncc3c(n2)N(C2CCCC2)C(=O)[C@]2(CCNC2=O)C3)cc1` has pIC50 reaching or exceeding 6? f

----------
biological target: CDK9-CYCLINT1 (Homo sapiens, UniProt P50750); construct: purchased Carna; test: CDK inhibition assay (microfluidic LabChip, IC50 format); format: biochemical; conditions: Table 4b, lower part; read-out: CDK9 CyclinT1 IC50
Sequence (P50750 whole entry): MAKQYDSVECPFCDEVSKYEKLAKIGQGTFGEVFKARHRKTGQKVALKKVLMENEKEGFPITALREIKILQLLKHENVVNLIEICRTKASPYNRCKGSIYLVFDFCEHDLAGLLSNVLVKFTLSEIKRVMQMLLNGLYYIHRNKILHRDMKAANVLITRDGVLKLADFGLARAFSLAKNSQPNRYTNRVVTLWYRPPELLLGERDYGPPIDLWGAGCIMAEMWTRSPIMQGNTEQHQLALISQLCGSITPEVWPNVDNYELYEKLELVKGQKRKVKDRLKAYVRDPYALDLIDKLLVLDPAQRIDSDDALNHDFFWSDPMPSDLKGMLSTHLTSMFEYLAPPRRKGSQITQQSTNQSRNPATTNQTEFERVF
Sequence (O60563 whole entry partner): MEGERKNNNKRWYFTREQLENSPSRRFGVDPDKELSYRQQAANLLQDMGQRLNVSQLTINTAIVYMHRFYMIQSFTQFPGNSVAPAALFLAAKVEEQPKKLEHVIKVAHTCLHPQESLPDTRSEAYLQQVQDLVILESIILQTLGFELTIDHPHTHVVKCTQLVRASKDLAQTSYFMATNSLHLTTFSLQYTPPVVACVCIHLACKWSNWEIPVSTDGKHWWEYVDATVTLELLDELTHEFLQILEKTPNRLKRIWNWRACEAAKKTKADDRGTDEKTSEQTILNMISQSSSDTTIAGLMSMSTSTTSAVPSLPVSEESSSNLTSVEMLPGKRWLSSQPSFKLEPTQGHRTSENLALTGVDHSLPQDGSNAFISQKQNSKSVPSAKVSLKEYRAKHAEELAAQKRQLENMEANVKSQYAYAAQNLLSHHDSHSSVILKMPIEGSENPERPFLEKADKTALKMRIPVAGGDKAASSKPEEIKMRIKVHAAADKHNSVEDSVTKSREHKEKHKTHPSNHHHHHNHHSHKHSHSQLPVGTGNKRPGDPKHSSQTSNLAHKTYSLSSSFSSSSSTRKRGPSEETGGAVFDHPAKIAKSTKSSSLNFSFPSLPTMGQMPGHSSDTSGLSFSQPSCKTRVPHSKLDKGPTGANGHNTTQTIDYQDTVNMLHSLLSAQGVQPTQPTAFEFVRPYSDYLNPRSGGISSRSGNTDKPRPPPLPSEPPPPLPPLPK
// reported pIC50 for each item listed
Hey, just a heads up that pIC50 is the negative log base 10 of the concentration in molar.

compound=CC(C)c1ccc(Nc2ncc3c(n2)N(C2CCCC2)C(=O)[C@]2(CCNC2=O)C3)cc1F recorded_value=7.91

Lab note: CDK9-CYCLINT1 (Homo sapiens, UniProt P50750) assay, enter pIC50 for `CN1CCC(c2ccc(Nc3ncc4c(n3)N(C3CCCC3)C(=O)[C@]3(CCNC3=O)C4)cc2)CC1` here 8.37

Lab note: CDK9-CYCLINT1 (Homo sapiens, UniProt P50750) assay, enter pIC50 for `CC(C)c1ccc(Nc2ncc3c(n2)N(C2CCCC2)C(=O)[C@]2(CCNC2=O)C3)cc1` here 8.04

Lab note: CDK9-CYCLINT1 (Homo sapiens, UniProt P50750) assay, enter pIC50 for CN1CCN(c2ccc(Nc3ncc4c(n3)N(C35CC(C3)C5)C(=O)C3(CCNC3=O)C4)cc2F)CC1 (stereo not drawn) here 7.11

Lab note: CDK9-CYCLINT1 (Homo sapiens, UniProt P50750) assay, enter pIC50 for `CS(=O)(=O)N1CCC(Nc2ncc3c(n2)N(C24CC(C2)C4)C(=O)[C@]2(CCNC2=O)C3)CC1` here 7.71

Lab note: CDK9-CYCLINT1 (Homo sapiens, UniProt P50750) assay, enter pIC50 for CC1CN(c2ccc(Nc3ncc4c(n3)N(C35CC(C3)C5)C(=O)[C@]3(CCNC3=O)C4)cc2)CC(C)N1 (stereo partly drawn) here 7.14
